- target system: T1, human IL-4 (human, UniProt P05112 25-153, biotinylated in the receptor binding assay and on the Biacore chip)
- T1 construct: also called interleukin-4; biotinylated IL-4
- T1 sequence (looked up): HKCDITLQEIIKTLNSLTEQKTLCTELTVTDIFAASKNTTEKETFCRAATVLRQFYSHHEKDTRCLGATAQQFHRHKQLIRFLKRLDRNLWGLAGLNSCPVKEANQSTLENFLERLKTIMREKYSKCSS
- assay notes: DOM9 RBA (IL-4 RBA)
Exam item: assign condition met to entries whose IC50 is below 4 nM and condition not met to entries at or above 4 nM. Note that a value of exactly 4 nM receives condition not met.

Q) IC50 strictly < 4 nM for this binder? DOM9-112-210-ASTKGPS-DOM10-276 (bispecific antibody, in-line fusion, from pDOM5) EVQLLESGGGLVQPGGSLRLSCAASGFTFRNFGMGWVRQAPGKGLEWVSWIISSGTETYYADSVKGRFTISRDNSKNTLYLQMNSLRAEDTAVYYCAKSLGRFDYWGQGTLVTVSSASTKGPSEVQLLESGGGLVQPGGSLRLSCAASGFTFRDYEMDWVRQAPGKGLEWVSSIGPSGSETYYADSVKGRFTISRDNSKNTLYLQMNSLRAEDTAVYYCAKAYTSFDYWGQGTLVTVSS
A) condition not met

Q) IC50 strictly < 4 nM for this binder? DOM9-155-78 (other, Vk dAb) VL: DIQMTQSPSSLSASVGDRVTITCRASRHIGDWLHWYQQKPGKAPKLLIAWASTLDSGVPSRFSGSGSGTDFTLTISSLQPEDFATYYCLQEGWGPPTFGQGTKVEIKR
A) condition met

Q) IC50 strictly < 4 nM for this binder? DOM10-208-TVAAPS-DOM9-155-78 (bispecific antibody, in-line fusion, from pDOM5) DIQMTQSPSSLSASVGDRVTITCRASSPITDGLAWYQQKPGKAPKLLIDTGSRLQSGVPSRFSGSGSGTDFTLTISSLQPEDFATYYCRQGAMGSYTFGQGTKVEIKRTVAAPSDIQMTQSPSSLSASVGDRVTITCRASRHIGDWLHWYQQKPGKAPKLLIAWASTLDSGVPSRFSGSGSGTDFTLTISSLQPEDFATYYCLQEGWGPPTFGQGTKVEIKR
A) condition not met

More entries:
Q) IC50 strictly < 4 nM for this binder? DOM9-112-210-DOM10-270 (bispecific antibody, in-line fusion, from pDOM5) EVQLLESGGGLVQPGGSLRLSCAASGFTFRNFGMGWVRQAPGKGLEWVSWIISSGTETYYADSVKGRFTISRDNSKNTLYLQMNSLRAEDTAVYYCAKSLGRFDYWGQGTLVTVSSASTKGPSDIQMTQSPSSLSASVGDRVTITCRASSVILNELHWYQQKPGKAPKLLISAVSRLQSGVPSRFSGSGSGTDFTLTISSLQPEDFATYYCLQTFWGPYTFGQGTKVEIKR
A) condition met

Q) IC50 strictly < 4 nM for this binder? DOM9-112-210-ASTKGPS-DOM10-213 (bispecific antibody, in-line fusion, from pDOM5) EVQLLESGGGLVQPGGSLRLSCAASGFTFRNFGMGWVRQAPGKGLEWVSWIISSGTETYYADSVKGRFTISRDNSKNTLYLQMNSLRAEDTAVYYCAKSLGRFDYWGQGTLVTVSSASTKGPSDIQMTQSPSSLSASVGDRVTITCRASQAIPWGLNWYQQKPGKAPKLLIYDVSSLQSGVPSRFSGSGSGTDFTLTISSLQPEDFATYYCQQDIHIPMTFGQGTKVEIKR
A) condition not met

Q) IC50 strictly < 4 nM for this binder? DOM10-416-ASTKGPS-DOM9-155-78 (bispecific antibody, in-line fusion, from pDOM5) EVQLLESGGGLVQPGGSLRLSCAASGFTFKGSEMDWVRQAPGKGLEWVSTISADGRETYYADSVKGRFTISRDNSKNTLYLQMNSLRAEDTAVYYCAKSYTSFDYWGQGTLVTVSSASTKGPSDIQMTQSPSSLSASVGDRVTITCRASRHIGDWLHWYQQKPGKAPKLLIAWASTLDSGVPSRFSGSGSGTDFTLTISSLQPEDFATYYCLQEGWGPPTFGQGTKVEIKR
A) condition not met
